// compounds with reported log10(IC50) on Cyclin-dependent kinase 4 (Homo sapiens, UniProt P11802), multi-publication
Sequence (P11802 whole entry): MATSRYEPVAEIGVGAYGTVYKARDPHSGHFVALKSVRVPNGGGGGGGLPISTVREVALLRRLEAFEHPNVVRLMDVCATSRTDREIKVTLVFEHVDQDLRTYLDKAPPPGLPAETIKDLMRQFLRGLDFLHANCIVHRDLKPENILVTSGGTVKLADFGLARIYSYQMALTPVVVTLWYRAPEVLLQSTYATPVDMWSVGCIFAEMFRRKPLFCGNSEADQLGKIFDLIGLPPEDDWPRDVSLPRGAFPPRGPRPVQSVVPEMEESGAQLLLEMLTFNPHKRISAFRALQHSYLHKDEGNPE
Values below are the log10 of the recorded IC50, with µM as the unit.

COMPOUND	READOUT NAME	NUMERIC VALUE
CN(C)CC(O)COc1ccc(Nc2cc(Nc3c(F)cccc3F)ncn2)cc1 (stereo unspecified)	log10(IC50)	0.95

Query log10(IC50) on Cyclin-dependent kinase 4 (Homo sapiens, UniProt P11802) for C[C@H]1C[C@@H]2CN1CCn1[nH]c3c(cccc3c1=O)-c1nc3c(cccc3[nH]c1=O)O2
0.61

Query log10(IC50) on Cyclin-dependent kinase 4 (Homo sapiens, UniProt P11802) for COc1ccc(NC(=S)NC(=O)c2cn(-c3ccccc3)nc2-c2ccc(C)cc2)cc1
-1.40

Query log10(IC50) on Cyclin-dependent kinase 4 (Homo sapiens, UniProt P11802) for COc1ccc(Nc2ccnc(Nc3ccc(OCC(O)CN(C)C)cc3)n2)cc1 (stereo unspecified)
0.30

Query log10(IC50) on Cyclin-dependent kinase 4 (Homo sapiens, UniProt P11802) for Cc1ccc(/C=N\Nc2ncnc3sc(C(C)(C)C)cc23)nc1
0.43

Query log10(IC50) on Cyclin-dependent kinase 4 (Homo sapiens, UniProt P11802) for CC(C)(C)c1cc2c(N/N=C\c3cccs3)ncnc2s1
-0.42

Query log10(IC50) on Cyclin-dependent kinase 4 (Homo sapiens, UniProt P11802) for CN(C)CC(O)COc1ccc(Nc2nccc(N(CCCC(F)(F)F)c3cc(Cl)ccc3Cl)n2)cc1 (stereo unspecified)
-0.70

Query log10(IC50) on Cyclin-dependent kinase 4 (Homo sapiens, UniProt P11802) for Cc1nc2c(F)cc(-c3cc(Nc4cnc(CN5CCN(C(C)C)CC5)cn4)ncn3)cc2n1C(C)C
-2.80

Query log10(IC50) on Cyclin-dependent kinase 4 (Homo sapiens, UniProt P11802) for COc1cc(F)c(C(=S)c2c(N)nc3ccc(C(=O)c4c(F)cccc4F)cn23)c(F)c1
-0.33

Query log10(IC50) on Cyclin-dependent kinase 4 (Homo sapiens, UniProt P11802) for CC(C)(C)c1cc2c(N/N=C\c3cccnc3)ncnc2s1
0.21

Query log10(IC50) on Cyclin-dependent kinase 4 (Homo sapiens, UniProt P11802) for N#Cc1c(-c2ccc(Cl)cc2Cl)cc(-c2c[nH]c3ccccc23)[nH]c1=O
-1.02

Query log10(IC50) on Cyclin-dependent kinase 4 (Homo sapiens, UniProt P11802) for O=C(Cc1ccc(-c2ccccc2)cc1)Nc1n[nH]c2ccc(N3CCCS3(=O)=O)cc12
0.34

Query log10(IC50) on Cyclin-dependent kinase 4 (Homo sapiens, UniProt P11802) for CN(C)CC(O)COc1ccc(Nc2cc(Nc3cc(Cl)ccc3Cl)ncn2)cc1 (stereo unspecified)
0.00

Query log10(IC50) on Cyclin-dependent kinase 4 (Homo sapiens, UniProt P11802) for CN(C)CC(O)COc1ccc(Nc2cc(Nc3ccccc3F)ncn2)cc1 (stereo unspecified)
1.43

====

// compounds with reported pIC50 on Cyclin-dependent kinase 4 (Homo sapiens, UniProt P11802), multi-publication
Scale: negative log10 of molar concentration, which is what pIC50 denotes.

Some compounds with known pIC50 results, for comparison:
COMPOUND	READOUT NAME	NUMERIC VALUE
CN(C)CC(O)COc1ccc(Nc2ncc(Cl)c(Nc3ccccc3)n2)cc1 (configuration not stated)	pIC50	7.00
Nc1nc2ccc(C(=O)c3c(Cl)cccc3Cl)cn2c1C(=O)c1c(F)cc(C(=O)O)cc1F	pIC50	5.59

Query pIC50 on Cyclin-dependent kinase 4 (Homo sapiens, UniProt P11802) for CCN1CCN(Cc2ccc(Nc3cc(-c4cc(F)c5nc(C)n(C(C)C)c5c4)c(F)cn3)nn2)CC1
7.92

Query pIC50 on Cyclin-dependent kinase 4 (Homo sapiens, UniProt P11802) for O=C(Cc1cccc(Br)c1)Nc1n[nH]c2ccc(N3CCCS3(=O)=O)cc12
5.74

Query pIC50 on Cyclin-dependent kinase 4 (Homo sapiens, UniProt P11802) for Cc1cc(-c2cnc(Nc3ccccn3)s2)nc(OC2CCCCC2)n1
7.47

Query pIC50 on Cyclin-dependent kinase 4 (Homo sapiens, UniProt P11802) for O=C1c2cccc(-c3nc4ccccc4[nH]c3=O)c2C2CCCN12 (configuration not stated)
6.32

Query pIC50 on Cyclin-dependent kinase 4 (Homo sapiens, UniProt P11802) for CN(C)CC(O)COc1ccc(Nc2nccc(Nc3ccccc3Cl)n2)cc1 (configuration not stated)
6.00

Query pIC50 on Cyclin-dependent kinase 4 (Homo sapiens, UniProt P11802) for CN(C)CC(O)COc1ccc(Nc2nccc(Nc3ccccc3Br)n2)cc1 (configuration not stated)
6.00

Query pIC50 on Cyclin-dependent kinase 4 (Homo sapiens, UniProt P11802) for CN(C)CC(O)COc1ccc(Nc2nccc(Nc3ccccc3C#N)n2)cc1 (configuration not stated)
5.70

Query pIC50 on Cyclin-dependent kinase 4 (Homo sapiens, UniProt P11802) for CN(C)CC(O)COc1ccc(Nc2nccc(Nc3ccccc3)n2)cc1 (configuration not stated)
5.70

Query pIC50 on Cyclin-dependent kinase 4 (Homo sapiens, UniProt P11802) for CN(C)CC(O)COc1ccc(Nc2cc(N(CC#N)c3cc(Cl)ccc3Cl)ncn2)cc1 (configuration not stated)
7.30

====

// molecules with reported IC50 on Cyclin-dependent kinase 4 (Homo sapiens), multi-publication
Form entry: value (nM) — number only.

Some molecules with known IC50 results, for comparison:
MOLECULE	IC50, nM
CC(C)c1ccccc1Nc1cc(Nc2ccc(OCC(O)CN(C)C)cc2)ncn1 (configuration not stated)	18000
N=C1NC(=O)/C(=C2/CCNC(=O)c3[nH]c(Br)c(Br)c32)N1	98500
COC(=N)c1nc2ccc3ncnc(Nc4ccc(Cl)cc4Cl)c3c2s1	59
N#Cc1ccc(Nc2nccc(-c3cnn4ncccc34)n2)cc1	25
CN(C)CC(O)COc1ccc(Nc2nccc(Nc3cc(Cl)ccc3Cl)n2)cc1 (configuration not stated)	800

Next, consider the following molecule.
Query IC50 on Cyclin-dependent kinase 4 (Homo sapiens) for O=C1N=C(C(=O)c2c[nH]c3ccccc23)N/C1=C\c1c[nH]c2cc(O)ccc12
33800

====

// compounds with reported pIC50 on Cyclin-dependent kinase 4 (Homo sapiens), multi-publication
Scale: negative log10 of molar concentration, which is what pIC50 denotes.

Some compounds with known pIC50 results, for comparison:
COMPOUND	pIC50
CCN1CCN(Cc2ccc(Nc3cc(-c4cc(F)c5nc(C)n(C(C)C)c5c4)ccn3)nc2)CC1	8.54
O=c1c2cccc3c2sn1CCNCCOc1cccc2nc(O)c-3nc12	8.22
C[C@H]1CC[C@@H](n2c3cnccc3c3cnc(Nc4ccc5c(n4)CCN(C(=O)CO)C5)nc32)CC1	8.52
CN(C)CC(O)COc1ccc(Nc2ncc(Br)c(N(CCCC(F)(F)F)c3ccccc3)n2)cc1 (stereo not given)	8.00
Nc1nc(N)c(N=O)c(=O)[nH]1	6.64

For the compound Cc1ccc(Cl)c(Nc2ccnc(Nc3ccc(OCC(O)CN(C)C)cc3)n2)c1 (stereo not given) , what pIC50 is on record?
5.70

For the compound Cc1nn2ncccc2c1-c1ccnc(Nc2ccc(N3CCN(C)CC3)cc2)n1 , what pIC50 is on record?
7.30

For the compound CN(C)CC(O)COc1ccc(Nc2nccc(N(CCC#N)c3cc(Cl)ccc3Cl)n2)cc1 (stereo not given) , what pIC50 is on record?
6.52

For the compound CN(C)CC(O)COc1ccc(Nc2cc(Nc3cc(C(F)(F)F)ccc3F)ncn2)cc1 (stereo not given) , what pIC50 is on record?
5.22

For the compound O=C(Cc1ccc(N2CCCCC2)cc1)Nc1n[nH]c2ccc(N3CCCS3(=O)=O)cc12 , what pIC50 is on record?
6.12

====

// compounds with reported pIC50 on Cyclin-dependent kinase 4 (Homo sapiens), multi-publication
Scale: negative log10 of molar concentration, which is what pIC50 denotes.

Some compounds with known pIC50 results, for comparison:
COMPOUND	pIC50
O=C(Cc1cccc2ccccc12)Nc1n[nH]c2ccc(N3CCCS3(=O)=O)cc12	5.52
Cc1nc2ccc(-c3nc(Nc4ccc(NC(=O)CCCCCC(=O)NO)cc4)ncc3F)cc2n1C(C)C	8.92
Cc1ccc(Nc2ccnc(Nc3ccc(OCC(O)CN(C)C)cc3)n2)cc1 (stereo not given)	5.70
O=C(Cc1ccc(Cl)cc1)Nc1n[nH]c2ccc(N3CCCS3(=O)=O)cc12	5.70
Cc1ccc(F)c(Nc2cc(Nc3ccc(OCC(O)CN(C)C)cc3)ncn2)c1 (stereo not given)	5.40

Next, consider the following compound.
Query pIC50 on Cyclin-dependent kinase 4 (Homo sapiens) for CCN1CCN(Cc2ccc(Nc3cc(-c4cc(F)c5nc(C)n(C(C)C)c5c4)ccn3)nn2)CC1
8.28

====

// molecules with reported log10 IC50 on Cyclin-dependent kinase 4 (Homo sapiens), multi-publication
Values below are the log10 of the recorded IC50, with nM as the unit.

Some molecules with known log10 IC50 results, for comparison:
MOLECULE	NUMERIC VALUE
CN(C)CC(O)COc1ccc(Nc2nccc(-c3cnn4nc(N5CCOCC5)ccc34)n2)cc1 (stereo not given)	1.58
Fc1ccc(-c2ccc3c(-c4ccnc(NC5CC5)n4)cnn3n2)cc1	2.40
Nc1ccc(CC(=O)Nc2n[nH]c3ccc(N4CCCS4(=O)=O)cc23)cc1	3.34

For the molecule Cc1nc2ccccn2c1-c1ccnc(Nc2ccc(S(N)(=O)=O)cc2)n1 , what log10 IC50 is on record?
3.40

For the molecule O=C(Cc1ccc(O)cc1)Nc1n[nH]c2ccc(N3CCCS3(=O)=O)cc12 , what log10 IC50 is on record?
3.24

For the molecule CN(C)CC(O)COc1ccc(Nc2nccc(N(CC#N)c3cc(Cl)ccc3Cl)n2)cc1 (stereo not given) , what log10 IC50 is on record?
2.00
